Every entry's value here was drawn from the OligoGym collection.

MEASUREMENT TARGET: ZNF708
ASSAY: pooled miR-30 sensor sort-seq; sequence = guide strand; further: reference of the scale not given here
CONDITIONS: shRNA
sensor-assay potency score (higher = more potent) for assorted sequences
# output: bare number, no unit

> print(dat)
           sequence.chain  observed
1  TTGAAAATACACTAAAAGCTTT     -0.61
2  TTTGTCACACTGAACTATTTTG     -1.74
3  TTATCTTATGTCTCTTTGCATT     -1.42

Task: Answer with the recorded sensor-assay potency score (higher = more potent) of `TCTGATATCCACATTTTCCATA` only.
Output: -1.12

Task: State its sensor-assay potency score (higher = more potent): `TACTGTGATGTCTTCCAGCTTT`
Output: -0.106

Task: Determine its reported sensor-assay potency score (higher = more potent): `TTATCTTATGATTCGTAAGGTT`
Output: -0.564

Task: Report measured sensor-assay potency score (higher = more potent); entry is `ATGTCTTATCTTATGTCTCTTT`
Output: -1.05

Task: Kindly indicate its recorded sensor-assay potency score (higher = more potent). Item: `TTTCTAGTAAGAATTATCTTAC`
Output: -0.946

Task: Report sensor-assay potency score (higher = more potent) for `TATCTTATGATTCGTAAGGTTT`
Output: -1.04

====

// values below are reported sensor-assay potency score (higher = more potent)
MEASUREMENT TARGET: PPARD
ASSAY: pooled miR-30 sensor sort-seq; sequence = guide strand
CONDITIONS: shRNA

> print(dat)
           sequence.chain  observed
1  TTCTTCTGAATCTTGCAGCTGC     0.468
2  TTGACAGCAAATTCAAACTTAG    -0.865
3  TTGAACTTGACAGCAAATTCAA    -0.881
4  TCGTACTCCAGCTTCATGCGGA   -0.0495
5  TTGCCGGTGAGGATGCTGCGGG    -0.839
6  TTCGGTCTTCTTGATCCGCTGC     0.435
7  TTGGAGATTGTTCAGACACTGA    -0.713
8  TAAGAAAGGAGGACAGACGTGG     0.523

Please find the next sequence below.
Task: Tell me its sensor-assay potency score (higher = more potent) on PPARD: `TTGATCCGCTGCATCATCTGGG`
Output: -0.175

====

MEASUREMENT TARGET: ROBO3
ASSAY: pooled miR-30 sensor sort-seq; sequence = guide strand
CONDITIONS: shRNA
OBSERVED PROPERTY: sensor-assay potency score (higher = more potent)
Answer using only a numeral; do not append any unit.

Task: Output sensor-assay potency score (higher = more potent) of `TGTAGGTCCAACATTGTCCAGC`
Output: -0.683

Task: For the sequence `TTTATAAACAAGTCTCAGGTGG` , give its measured sensor-assay potency score (higher = more potent) value.
Output: -0.186

Task: For the sequence `TTGGGCTTGCACCTTGATCTGG` , give its reported sensor-assay potency score (higher = more potent).
Output: -0.739

====

Readings of sensor-assay potency score (higher = more potent) for the listed sequences
MEASUREMENT TARGET: SAMD3
ASSAY: pooled miR-30 sensor sort-seq; sequence = guide strand
CONDITIONS: shRNA
Respond using a number only.

Some sequences with recorded sensor-assay potency score (higher = more potent):
> print(dat)
           sequence.chain  observed
1  TTCTGCTCTGCTAACATGCATT     -1.16
2  TTGAAATCTATGAACTAGCTCT      0.87
3  TTCAACATGTCTTCATCTGTGT     0.839

Task: # return recorded sensor-assay potency score (higher = more potent) for input `TTAACTTCCAACACAGGTGTGG`
Output: 0.183

Task: For the sequence `TTCTCCACCAACCAACTGCAGA` , report sensor-assay potency score (higher = more potent).
Output: -1.35

Task: Provide one value: measured sensor-assay potency score (higher = more potent) of `TAAAACATAGGACTTCGTCCAC`
Output: 0.0328
